# TEST_TARGET: T1, human factor Xa (human, UniProt P00742 41-179; P00742 235-488)
# T1 chain 1: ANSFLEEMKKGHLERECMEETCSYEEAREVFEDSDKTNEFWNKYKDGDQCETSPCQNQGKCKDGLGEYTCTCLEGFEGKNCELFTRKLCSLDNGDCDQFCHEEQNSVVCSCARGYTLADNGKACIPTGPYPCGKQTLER
# T1 chain 2: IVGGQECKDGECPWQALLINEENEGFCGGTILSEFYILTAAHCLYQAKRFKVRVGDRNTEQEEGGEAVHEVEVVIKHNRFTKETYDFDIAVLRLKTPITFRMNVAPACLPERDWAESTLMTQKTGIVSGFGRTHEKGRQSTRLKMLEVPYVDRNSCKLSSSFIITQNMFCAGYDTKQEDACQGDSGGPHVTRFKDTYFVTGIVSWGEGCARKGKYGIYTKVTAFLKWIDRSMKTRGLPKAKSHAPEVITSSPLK
# ASSAY_OVERVIEW: enzyme inhibition
Please respond with reported Ki for every item in the list.
Remember to put the unit after the number in your answer.

{"BINDER": "TW6153 (protein) EVVREVCSEQAETGPCRAMISRWYFDVTEGKCAPFFYGGCIGNRNNFDTEEYCMAVCGSAI", "MEASUREMENT_TYPE": "Ki", "REPORTED_RESULT": "36 nM"}
{"BINDER": "TW122 (protein) EVCSEQAETGPCRAMISRWYFDVTEGKCAPFFYGGCGANRNNFDTEEYCMAVCGSAI", "MEASUREMENT_TYPE": "Ki", "REPORTED_RESULT": "581 nM"}
{"BINDER": "BG002 (protein) EVVREVCSEQAETGPCRALLSRWYFDVTEGKCAPFFYGGCGGNRNNFDTEEYCMAVCGSAI", "MEASUREMENT_TYPE": "Ki", "REPORTED_RESULT": "60 nM"}
{"BINDER": "TW6161 (protein) EVVREVCSEQAETGPCRAMISRWYFDVTEGKCAPFFYGGCYGNRNNFDTEEYCMAVCGSAI", "MEASUREMENT_TYPE": "Ki", "REPORTED_RESULT": "8.7 nM"}
{"BINDER": "TW6159 (protein) EVVREVCSEQAETGPCRAMISRWYFDVTEGKCAPFFYGGCVGNRNNFDTEEYCMAVCGSAI", "MEASUREMENT_TYPE": "Ki", "REPORTED_RESULT": "64 nM"}

Items follow; give Ki for each.
1. DD129 (protein) EVVREVCSEQAETGPCRALFSRWYFDVTEGKCAPFFYGGCGGNRNNFDTEEYCMAVCGSAI
2. TW6139 (protein) EVVREVCSEQAETGPCRAMISRWYFDVTEGKCAPFFYGGCHGNRNNFDTEEYCMAVCGSAI
3. TW6151 (protein) EVVREVCSEQAETGPCRAMISRWYFDVTEGKCAPFFYGGCEGNRNNFDTEEYCMAVCGSAI

1: 6 nM; 2: 78 nM; 3: 954 nM
